# SYSTEM_UNDER_TEST: human GABAA α1β3γ2 receptor (Homo sapiens (Human), UniProt P14867+P18507)
# TEST_PROTOCOL: Radioligand binding assay, competition for [3H]Flumazenil, γ2-containing GABAA subtypes
# CONDITION_SET: Table 1; [3H]Flumazenil displacement, HEK293F cells, mean of two determinations; read-out: Ki h-GABAA α1β3γ2
QUANTITY_KIND: Ki (µM)

INSERT INTO results (compound, units_text, measured_number) VALUES
  ('C[C@@H]1N=C(c2c(F)cccc2F)c2c(cnc(C(F)(F)F)c2Cl)-n2cc(C(=O)NCCO)nc21 [Example 19]', 'µM', 5.11),
  ('Cc1nnc2n1-c1cnc(C3CC3)c(Cl)c1C(c1c(F)cccc1F)=N[C@H]2C [Example 2]', 'µM', 3.29),
  ('C[C@@H]1N=C(c2c(F)cccc2F)c2c(cnc(C(F)(F)F)c2Cl)-n2nc(C(=O)N3CC(C)(O)C3)nc21 [Example 10]', 'µM', 4.61),
  ('Cc1nnc2n1-c1cnc(Cl)c(Cl)c1C(c1c(F)cccc1F)=N[C@H]2C [Example 1]', 'µM', 1.09),
  ('Cc1nnc2n1-c1cnc(C(F)(F)F)c(Cl)c1C(c1c(F)cccc1Cl)=N[C@H]2C [Example 17]', 'µM', 4.87),
  ('C[C@@H]1N=C(c2c(F)cccc2F)c2c(cnc(C(F)(F)F)c2Cl)-n2nc(C(=O)NCC(C)(C)O)nc21 [Example 21]', 'µM', 11.3),
  ('Cc1ncc2c(c1Cl)C(c1c(F)cccc1F)=N[C@@H](C)c1nnc(C)n1-2 [Example 3]', 'µM', 1.79),
  ('Cc1nnc2n1-c1cnc(C(F)(F)F)c(Cl)c1C(c1c(F)cccc1F)=N[C@H]2C [Example 4]', 'µM', 7.27);

---

# SYSTEM_UNDER_TEST: human GABAA α1β3γ2 receptor (Homo sapiens (Human), UniProt P14867+P18507)
# TEST_PROTOCOL: Radioligand binding assay, competition for [3H]Flumazenil, γ2-containing GABAA subtypes
# CONDITION_SET: Table 1; [3H]Flumazenil displacement, HEK293F cells, mean of two determinations; read-out: Ki h-GABAA α1β3γ2
pKi: −log10 of the molar value.
Reported values of pKi for individual entries
QUANTITY_KIND: pKi

INSERT INTO assay_data (compound_smiles, system_under_test, measured_number) VALUES
  ('C[C@@H]1N=C(c2c(F)cccc2F)c2c(cnc(C(F)(F)F)c2Cl)-n2nc(C(=O)NCCO)nc21', 'human GABAA α1β3γ2 receptor (Homo sapiens (Human), UniProt P14867+P18507)', 5.02),
  ('C[C@@H]1N=C(c2c(F)cccc2F)c2c(cnc(C(F)(F)F)c2Cl)-n2nc(C(=O)N3CCS(=O)(=O)CC3)nc21', 'human GABAA α1β3γ2 receptor (Homo sapiens (Human), UniProt P14867+P18507)', 5.10),
  ('C[C@@H]1N=C(c2c(F)cccc2F)c2c(cnc(C(F)(F)F)c2Cl)-n2nc(NC(=O)C3COC3)nc21', 'human GABAA α1β3γ2 receptor (Homo sapiens (Human), UniProt P14867+P18507)', 4.91),
  ('C[C@@H]1N=C(c2c(F)cccc2F)c2c(cnc(C(F)(F)F)c2Cl)-n2nc(C(=O)NC[C@@H](C)O)nc21', 'human GABAA α1β3γ2 receptor (Homo sapiens (Human), UniProt P14867+P18507)', 5.02),
  ('C[C@@H]1N=C(c2c(F)cccc2F)c2c(cnc(C(F)(F)F)c2Cl)-n2nc(C(=O)NCC3(O)CC3)nc21', 'human GABAA α1β3γ2 receptor (Homo sapiens (Human), UniProt P14867+P18507)', 4.98),
  ('C[C@@H]1N=C(c2c(F)cccc2F)c2c(cnc(C(F)(F)F)c2Cl)-n2nc(C(=O)N[C@H]3C[C@H](O)C3)nc21', 'human GABAA α1β3γ2 receptor (Homo sapiens (Human), UniProt P14867+P18507)', 5.08);

---

# SYSTEM_UNDER_TEST: human GABAA α2β2γ1 receptor (Homo sapiens (Human), UniProt P47869+Q8N1C3)
# TEST_PROTOCOL: Radioligand binding assay, competition for [3H]RO7239181, γ1-containing GABAA subtypes
# CONDITION_SET: Ki h-GABAA α2β2γ1, Table 2; [3H]RO7239181 displacement
# key: entry, value: Ki
QUANTITY_KIND: Ki (nM)

INSERT INTO results (molecule, measured_number) VALUES
  ('Cc1nnc2n1-c1cnc(C(F)(F)F)c(Cl)c1C(c1c(F)cccc1Cl)=N[C@H]2C [Example 17]', 21),
  ('C[C@@H]1N=C(c2c(F)cccc2F)c2c(cnc(C(F)(F)F)c2Cl)-n2nc(C(=O)NCCO)nc21 [Example 15]', 36.5),
  ('C[C@@H]1N=C(c2c(F)cccc2F)c2c(cnc(C(F)(F)F)c2Cl)-n2nc(C(=O)N3CCC3)nc21 [Example 6]', 45.2),
  ('C[C@@H]1N=C(c2c(F)cccc2F)c2c(cnc(C(F)(F)F)c2Cl)-n2nc(C(=O)N3CC(F)C3)nc21 [Example 7]', 20.2);

---

# SYSTEM_UNDER_TEST: h-GABA-A α2β2γ1 (Homo sapiens (Human), UniProt P47869+Q8N1C3)
# TEST_PROTOCOL: Two-electrode voltage clamp electrophysiology in Xenopus oocytes expressing GABAA receptors
# Format: cell-based
# CONDITION_SET: Table 2; GABA EC20, test compound at approx. 30-fold its Ki α2β2γ1, Xenopus oocytes, -80 mV
QUANTITY_KIND: Fold increase h-GABA-A α2β2γ1 oocyte @ 30-fold Ki

INSERT INTO results (compound_smiles, measured_number) VALUES
  ('Cc1nnc2n1-c1cnc(C(F)(F)F)c(Cl)c1C(c1c(F)cccc1F)=N[C@H]2C', 2.16),
  ('Cc1ncc2c(c1Cl)C(c1c(F)cccc1F)=N[C@@H](C)c1nnc(C)n1-2', 1.66),
  ('C[C@@H]1N=C(c2c(F)cccc2F)c2c(cnc(C(F)(F)F)c2Cl)-n2nc(C(=O)N3CC(C)(O)C3)nc21', 1.82),
  ('C[C@@H]1N=C(c2c(F)cccc2F)c2c(cnc(C(F)(F)F)c2Cl)-n2nc(N3CCCC3=O)nc21', 2.73);

---

# Efficacy (GABA) % annotations
# SYSTEM_UNDER_TEST: h-GABA-A α2β2γ1 (Homo sapiens (Human), UniProt P47869+Q8N1C3)
# TEST_PROTOCOL: Two-electrode voltage clamp electrophysiology in Xenopus oocytes expressing GABAA receptors
# Type: cell-based
# CONDITION_SET: Table 2; % modulation of GABA EC20 = 100*(Fold increase-1), compound at 30-fold Ki
QUANTITY_KIND: Efficacy (GABA) % (%)

INSERT INTO results (compound, system_under_test, quantity_kind, measured_number) VALUES
  ('C[C@@H]1N=C(c2c(F)cccc2F)c2c(cnc(C(F)(F)F)c2Cl)-n2nc(C(=O)N3CC(F)C3)nc21 [Example 7]', 'h-GABA-A α2β2γ1 (Homo sapiens (Human), UniProt P47869+Q8N1C3)', 'Efficacy (GABA) %', 85),
  ('C[C@@H]1N=C(c2c(F)cccc2F)c2c(cnc(C(F)(F)F)c2Cl)-n2nc(C(=O)N3CC(O)C3)nc21 [Example 8]', 'h-GABA-A α2β2γ1 (Homo sapiens (Human), UniProt P47869+Q8N1C3)', 'Efficacy (GABA) %', 114),
  ('C[C@H](O)CNC(=O)c1nc2n(n1)-c1cnc(C(F)(F)F)c(Cl)c1C(c1c(F)cccc1F)=N[C@H]2C [Example 14]', 'h-GABA-A α2β2γ1 (Homo sapiens (Human), UniProt P47869+Q8N1C3)', 'Efficacy (GABA) %', 158),
  ('C[C@@H]1N=C(c2c(F)cccc2F)c2c(cnc(C(F)(F)F)c2Cl)-n2nc(C(=O)N3CC(C)(O)C3)nc21 [Example 10]', 'h-GABA-A α2β2γ1 (Homo sapiens (Human), UniProt P47869+Q8N1C3)', 'Efficacy (GABA) %', 82),
  ('COC1CN(C(=O)c2nc3n(n2)-c2cnc(C(F)(F)F)c(Cl)c2C(c2c(F)cccc2F)=N[C@H]3C)C1 [Example 9]', 'h-GABA-A α2β2γ1 (Homo sapiens (Human), UniProt P47869+Q8N1C3)', 'Efficacy (GABA) %', 87),
  ('C[C@@H]1N=C(c2c(F)cccc2F)c2c(cnc(C(F)(F)F)c2Cl)-n2c1nc1c2CCC1 [Example 20]', 'h-GABA-A α2β2γ1 (Homo sapiens (Human), UniProt P47869+Q8N1C3)', 'Efficacy (GABA) %', 108);

---

# SYSTEM_UNDER_TEST: human GABAA α2β2γ1 receptor (Homo sapiens (Human), UniProt P47869+Q8N1C3)
# TEST_PROTOCOL: Radioligand binding assay, competition for [3H]RO7239181, γ1-containing GABAA subtypes
# CONDITION_SET: Ki h-GABAA α2β2γ1, Table 1; [3H]RO7239181 displacement, membranes from HEK293F cells, mean of two determinations
Rule for this label: true (1) means Ki is less than 0.04 µM; false (0) means Ki is at least 0.04 µM.

INSERT INTO results (compound_smiles, answer_label) VALUES
  ('COC1CN(C(=O)c2nc3n(n2)-c2cnc(C(F)(F)F)c(Cl)c2C(c2c(F)cccc2F)=N[C@H]3C)C1', 'true (1)'),
  ('Cc1nnc2n1-c1cnc(C(F)(F)F)c(Cl)c1C(c1c(F)cccc1F)=N[C@H]2C', 'false (0)'),
  ('C[C@@H]1N=C(c2c(F)cccc2F)c2c(cnc(C(F)(F)F)c2Cl)-n2nc(C(=O)NCC(C)(C)O)nc21', 'false (0)'),
  ('C[C@@H]1N=C(c2c(F)cccc2F)c2c(cnc(C(F)(F)F)c2Cl)-n2nc(C(=O)NCCO)nc21', 'true (1)');
